System: MS2 coat protein
Assay: apparent KD of MS2 coat protein; designed switch direction (-1 OFF switch, 1 ON switch): 1; higher = weaker reporter binding
Details: Eterna round: R95; input ligand: FMN 200 uM
Class 1: apparent KD of MS2 coat protein at least 40 nM. Class 0: apparent KD of MS2 coat protein below 40 nM.

In plain terms: is recorded apparent KD of MS2 coat protein at least 40 nM for AACACACAUGAGGAUCACCCAUGUACCGAAAUCACAGGAUAUACAUAACUGAAUAACAUUGUAGAAGGGUGGCCGG [Enorerteso] (puzzle: Same State 1) ? 0

Request: GGGUGUGGAAGGAAAGACAGGGAAAGGAAACAUGAGGAUCACCCAUGUGAAGGAAGAAAGGGAGCUCGUCUUAUAAG [JR_SHM208A_Sub002] (puzzle: Sensor for hsa-mir-208a) 0

// next record ACAAGCUUUUUGCUCCUCUUAUGUCCGAAACAUGAGGAUCACCCAUGUAUAGAUUGUGUGUUGUUGUAGAUGCAAGA [JR_SHM208A_Sub061] (puzzle: Sensor for hsa-mir-208a) 1

Proceed to AGGUGAUAUGGAAAGGAUAUACGGUUUAGGACAUGAGGAUCACCCAUGUGGAAGAUGGCGAGAGAGUAGAAGGUUCGAAAUUGGU [JR_SS@_Sub024] (puzzle: Same State 2) 1

And CGUCCGGCCUGUGCUGGCCGGUGGCUUGUACAUGAGGAUCACCCAUGUUCUUGUGCUGGCGUUUUGCUCGUCUUGUG [salish99_mir208a_r3_020] (puzzle: Sensor for hsa-mir-208a) ? 0

Try AGUCCAGCCUGAGCUGGACAAAAGCAUGUACAUGAGGAUCACCCAUGUCAUGUACAAGCUUUUUGUUCGUCUUAAAA [Zipper 46 - 12] (puzzle: Sensor for hsa-mir-208a) next. 1

And for UCUUGGUUUUUGCUCGUUUUUUGUGUUGAACAUGAGGAUCACCCAUGUAUUGUACGGUCCAAUUUAGUGGUAAUCCG [JMF 66] (puzzle: Sensor for hsa-mir-208a) ? 1

Similarly, AAGUAACAUGAGGAUCACCCAUGUGAGGUGAGCGUAGGAUAUCGAGAAGGAAGGGUGGAGCGAGAAGGACGAGAGG [JR_SS1_Sub0100] (puzzle: Same State 1) ? 1

And then GAGAGACAUGAGGAUCACCCAUGUAGAAUAGAACAAGGAUAUGUGGAAGGCGGAGGAGAGACAGAAGGUGUAGGAA [JR_SS1_Sub054] (puzzle: Same State 1) , what is it? 1

Follow-up entry: UCCUCAGUUUCACAGGAUAUGCGCUGAGUCACAUGAGGAUCACCCAUGUAGACGGAAAAUGUCGGGCAGAAGGGUGAGGCAUAAA [Diretibe] (puzzle: Same State 2) 1

Field entry: AGCUAUGGAAAACUAUAGCAAAAGUAUGUACAUGAGGAUCACCCAUGUCAUGUACAAGCUUUUUGCUCGUCUUAAAA [ak 6 mod of one Eli's designs.] (puzzle: Sensor for hsa-mir-208a) 1

Next sequence up: CGUAGGUAGCUGGAGGAUAUUCGAGUGGUAACAUGAGGAUCACCCAUGUGGAGAGAGGAACAUGAGGAGAAGGCUAGCUGCCUGC [JL-ss2-3.19 JL mod] (puzzle: Same State 2) 0

UAGUACAUGCUUUUUGCCCGUCUUAGAUAACAUGAGGAUCACCCAUGUAAGGUGAAAGUUAUAUAGUGGAGGAAGAU [JR_SHM208A_Sub055] (puzzle: Sensor for hsa-mir-208a) ? 1

Subsequent entry: UACAAUCUAUCUGAGGAUAUCAUGAUGAUAACAUGAGGAUCACCCAUGUGCAGGAAAACUGCAUAUGAGAAGGCAGAUAGAUUGU [salish99_ss2_r3_074] (puzzle: Same State 2) 1

// query: AGUGAACAUGAGGAUCACCCAUGUGAGAGAAGUGUAGGAUAUGUGAGAGGCGGAGGAGGGACAGAAGGACAUGGAG [JR_SS!_Sub075] (puzzle: Same State 1) 0

Record: GUGGUGUAGAUACAGGAUAUGUUGCUCGUAACAUGAGGAUCACCCAUGUAUAUAUGAGAUUAAAUGCAGAAGGGUGCACACCACG [Mat - Same State 2 - Mod of UCT - D76] (puzzle: Same State 2) 0

Okay, and UUUUAUUUUUGGGUGCAAGCUUUUUGCUUACAUGAGGAUCACCCAUGUUUUUAUUUUUUAUUUUUAUUUUUAUUUUU (puzzle: Sensor for hsa-mir-208a) ? 1

Similarly, UCUUGGUUUUUGCUCGUUUUUUGUGUUGAACAUGAGGAUCACCCAUGUAUUGUACGGUCCAGUUUGGUAAUGGUCCA [JMF 8] (puzzle: Sensor for hsa-mir-208a) ? 0

Here is the next sequence: UAGAGAGGAAGCGAGGAUAUCGUGGGAGGAACAUGAGGAUCACCCAUGUGUGAUGUUGAGAGGGACGAGAAGGCGCGGGAAAGUA [JR_SS2_Sub079] (puzzle: Same State 2) 1

These entries and their values trace back to the supplement of paper PMC9170038.
